Target: Hypoxia-inducible factor 1-alpha inhibitor (Homo sapiens, UniProt Q9NWT6)
Sequence (Q9NWT6 whole entry): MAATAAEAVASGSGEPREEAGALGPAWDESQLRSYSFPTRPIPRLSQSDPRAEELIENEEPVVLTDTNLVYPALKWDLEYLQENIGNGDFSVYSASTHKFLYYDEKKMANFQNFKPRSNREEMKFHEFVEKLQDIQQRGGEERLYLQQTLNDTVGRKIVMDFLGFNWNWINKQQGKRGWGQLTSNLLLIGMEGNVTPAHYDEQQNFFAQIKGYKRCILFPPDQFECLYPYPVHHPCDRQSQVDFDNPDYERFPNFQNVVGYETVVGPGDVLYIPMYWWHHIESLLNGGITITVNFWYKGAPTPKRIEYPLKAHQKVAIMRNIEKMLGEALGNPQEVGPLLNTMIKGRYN
Test: Inhibition of human recombinant FIH1
Readout: pIC50
Answers are plain numbers, as −log10 of the molar value.

Please review the entries below; each comes with its answer.
O=C(O)CCN1C(=O)/C(=C\c2ccc(-c3ccc(Cl)cc3)o2)SC1=S: 4.18
COc1ccccc1/C=C/c1cn2c(-c3ccc4ccccc4n3)nnc2s1: 4.32
COc1ccccc1/C=C1\SC(=S)N(CCC(=O)Nc2ccc(S(N)(=O)=O)cc2)C1=O: 4.49
CCSc1ccc(-c2nn(-c3ccccc3)cc2/C=C2/SC(=S)N(CC(=O)O)C2=O)cc1: 4.44
COc1cccc(/C=C2\SC(=S)N(CC(=O)Nc3cccc4nonc34)C2=O)c1: 4.34
O=C(CCN1C(=O)/C(=C\C=C\c2ccco2)SC1=S)Nc1cccc2nonc12: 4.31
COc1ccccc1OCc1cn2c(-c3ccc4ccccc4n3)nnc2s1: 4.38

Consider the record given below.
Challenge: Sample COc1cccc(/C=C2\SC(=S)N(CCC(=O)Nc3cccc4nonc34)C2=O)c1 — what was its pIC50?
Response given: 4.14
